Reported GI50 by item:
System: EKVX
Experiment: NCI tumour cell line growth inhibition, 48 h
The source made the active and inactive calls. Rule as the data show it: active = GI50 up to about 1.1 µM and inactive = higher.
assayEndpoint: GI50

INSERT INTO measurements (molecule, assayresult) VALUES
  ('O=NC1c2cccc3cccc(c23)C1N=O (configuration not stated)', '2.58 µM (inactive)'),
  ('CC[C@H](C)[C@H]1NC(=O)C(C(C)=O)=C1O', '> 100 µM (inactive)'),
  ('CC1(c2cccc3c2C2(O)C=CC4(CCC32)OCCO4)OCCO1 (configuration not stated)', '> 100 µM (inactive)'),
  ('CCCCCc1cc2c(cc1O)CC[C@@H]1[C@@H]2CC[C@]2(C)[C@@H](O)CC[C@@H]12', '17.9 µM (inactive)'),
  ('CCCCC(C)(C/C=C/[C@@H]1[C@@H](C(O)CCCCCC(=O)OC)C(=O)C[C@H]1O[Si](C)(C)C(C)(C)C)O[Si](C)(C)C (some centres not stated)', '> 100 µM (inactive)'),
  ('COc1ccc(C(C)Nc2cc(OC)c(OC)c(OC)c2)cc1 (configuration not stated)', '> 24.9 µM (inactive)'),
  ('COc1ccc(C[N+]23C(CC[C@H]2c2ccccc2)CC[C@H]3c2ccccc2)cc1 (some centres not stated)', '15.4 µM (inactive)'),
  ('CC[n+]1[b-](C(C)(C)C)n(/N=C/C(C)(C)C)[b-](C(C)(C)C)[n+]1CC', '> 100 µM (inactive)'),
  ('O=C1CC[C@@H](S(=O)(=O)c2ccccc2)[C@H](/C=C/c2ccccc2)O1', '> 100 µM (inactive)'),
  ('N#Cc1ccc(C2ON=C(c3ccccc3)N2C23CC4CC(CC(C4)C2)C3)cc1 (configuration not stated)', '> 10 µM (inactive)'),
  ('CC(=O)N1CC(=O)NC1=S', '> 100 µM (inactive)'),
  ('Nc1ccc(-c2nc3cc(F)ccc3s2)cc1I', '9.46 µM (inactive)'),
  ('O=C(NC(CS)C(=O)O)c1c2ccccc2nc2ccccc12 (configuration not stated)', '47.5 µM (inactive)'),
  ('COc1ccc2sc(-n3nc4ccccc4c3Nc3nc4ccc(OC)cc4s3)nc2c1', '3.52 µM (inactive)'),
  ('COc1ccc(O)c(C#N)c1C#N.COc1ccc(OC)c(C#N)c1C#N', '23.7 µM (inactive)'),
  ('Nc1c2c(nc3ccccc13)CCCc1ccccc1-2', '13.2 µM (inactive)'),
  ('N[C@H](CCC(=O)NCP(=O)(O)O)C(=O)O', '> 100 µM (inactive)'),
  ('CC1Cc2c(N)nc(NN)nc2NC1=O (configuration not stated)', '> 100 µM (inactive)'),
  ('CCCCCCCCCCCCCP(=O)(O)O', '> 100 µM (inactive)'),
  ('O=[N+]([O-])c1ccc(Cc2nc3cc4ccccc4cc3[nH]2)cc1C(F)(F)F', '25.8 µM (inactive)'),
  ('N=c1c2c(=S)n(-c3ccccc3)c(=S)n(-c3ccccc3)c2nc(SCCN2CCCC2)n1-c1ccccc1', '2.49 µM (inactive)'),
  ('COC(=O)c1cc2ccc(N)nc2[nH]c1=O', '> 100 µM (inactive)');

----------
Test system: SF-539
Assay: NCI tumour cell line growth inhibition, 48 h
Calls of active or inactive are those of the source. Cut-off read from the data, not from the text of the source: active = GI50 up to about 1.1 µM and inactive = higher.
Outcome codes: active, inactive

INSERT INTO measurements (molecule, grouplabel) VALUES
  ('NNC(=S)N/N=C/C(=C/Nc1ccccc1)[N+](=O)[O-]', 'inactive'),
  ('COC1CC(OC2C(C)OC(OC3C(C)OC(OC4C(C)OC(O[C@H]5CC[C@@]6(C)C(=CC[C@]7(O)[C@@H]6C[C@@H](OC(=O)/C=C(\C)C(C)C)[C@@]6(C)[C@]7(O)CC[C@@]6(O)C(C)=O)C5)CC4OC)CC3OC)CC2OC)OC(C)C1O (stereo not given in full)', 'inactive'),
  ('COc1ccc(O)c(C#N)c1C#N.COc1ccc(OC)c(C#N)c1C#N', 'inactive'),
  ('CCOC(=O)c1nc2cc(F)cc(F)c2[nH]c1=O', 'inactive'),
  ('CC(=O)O[C@H]1C(=O)[C@@]2(C)[C@H]([C@H](OC(=O)C3CCCCC3)[C@]3(O)C[C@H](OC(=O)[C@H](O)[C@@H](NC(=O)C4CCCCC4)C4CCCCC4)C(C)=C1C3(C)C)[C@]1(OC(C)=O)CO[C@@H]1C[C@@H]2O', 'active');
